test system: E. coli IBRS E003; assay: Antimicrobial microdilution assay (MIC/MBC); type: cell-based, Escherichia coli; conditions: Escherichia coli, IBRSE003; subcultivation, 24 h at 37 °C; read-out: MBC
propertyName: MBC

Field MBC (entry O=C(/C=C/c1ccc(O)c(O)c1)O[C@@H]1C[C@](O)(C(=O)O)C[C@@H](O)[C@H]1O [Chlorogenic Acid, chlorogenic acid] ) reads > 1000 µg/mL

The measured MBC associated with O=c1c(O[C@@H]2O[C@H](CO)[C@@H](O)[C@H](O)[C@H]2O)c(-c2ccc(O)c(O)c2)oc2cc(O)cc(O)c12 [Isoquercitrin, isoquercitrin] reads > 1000 µg/mL

Data point: O=C(O)/C=C/c1ccc(O)cc1 [p-Coumaric Acid, p-coumaric acid] ; MBC = > 1000 µg/mL
